target: Orexin/Hypocretin receptor type 1 (Homo sapiens); experiment: blockers of orexin-A calcium signaling via HCRTR1 – fluorescence, CHO/OX1R cells, Fluo-8 calcium, primary screen (AID 434989); conditions: Fluo-8 calcium fluorescence, at 5 µM, stronger effect = higher value;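 note: 0% = orexin A challenge wells and 100% = SB-334867-A antagonist wells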
Screen size: about 330,000 compounds; about 1,400 (0.42%) were called active. The sample holds actives, similar compounds and a random draw of the others, so the mix is not that of the screen.
Measured inhibition, listed per entry for reference.

molecule	study_target	inhibition
Cc1ccc(O)c(NC(=O)COc2cc(C)ccc2C)c1	Orexin/Hypocretin receptor type 1 (Homo sapiens)	2.38% (inactive)
COc1ccc(Nc2oc(-c3ccccc3Cl)nc2C#N)cc1	Orexin/Hypocretin receptor type 1 (Homo sapiens)	-16.2% (inactive)
S=c1[nH]nc(-c2cc(-c3ccccc3)n[nH]2)n1/N=C/c1c2ccccc2cc2ccccc12	Orexin/Hypocretin receptor type 1 (Homo sapiens)	44.8% (active)
NCCN1CCN2C(=O)CN(C(=O)c3ccccc3)CC12 (stereo not given)	Orexin/Hypocretin receptor type 1 (Homo sapiens)	3.19% (inactive)
Cc1cccc(OCC(=O)NC(=S)Nc2ccccc2N2CCOCC2)c1	Orexin/Hypocretin receptor type 1 (Homo sapiens)	-22.4% (inactive)
CC1CCN(c2oc(-c3ccccc3F)nc2C#N)CC1	Orexin/Hypocretin receptor type 1 (Homo sapiens)	-6.67% (inactive)
COc1ccc(NS(=O)(=O)c2ccc(C(=O)Nc3c(C)n(C)n(-c4ccccc4)c3=O)cc2)cc1	Orexin/Hypocretin receptor type 1 (Homo sapiens)	1.25% (inactive)
c1ccc(-c2cc(-c3ccccc3)[nH]n2)cc1	Orexin/Hypocretin receptor type 1 (Homo sapiens)	-9.86% (inactive)
C/C(N)=C(/C#N)C(=O)COC(=O)c1cc(-c2ccc(C)cc2)nc2ccccc12	Orexin/Hypocretin receptor type 1 (Homo sapiens)	47.2% (active)
NS(=O)(=O)c1cccc(NC(=O)COC(=O)c2cc([N+](=O)[O-])ccc2N2CCCC2)c1	Orexin/Hypocretin receptor type 1 (Homo sapiens)	-7.78% (inactive)

====

target: Orexin/Hypocretin receptor type 1 (Homo sapiens) (UniProt O43613); experiment: blockers of orexin-A calcium signaling via HCRTR1 – fluorescence, CHO/OX1R cells, Fluo-8 calcium, primary screen (AID 434989); details: Fluo-8 calcium fluorescence, at 5 µM;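 note: 0% = orexin A challenge wells and 100% = SB-334867-A antagonist wells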
Sequence (O43613 whole entry, looked up): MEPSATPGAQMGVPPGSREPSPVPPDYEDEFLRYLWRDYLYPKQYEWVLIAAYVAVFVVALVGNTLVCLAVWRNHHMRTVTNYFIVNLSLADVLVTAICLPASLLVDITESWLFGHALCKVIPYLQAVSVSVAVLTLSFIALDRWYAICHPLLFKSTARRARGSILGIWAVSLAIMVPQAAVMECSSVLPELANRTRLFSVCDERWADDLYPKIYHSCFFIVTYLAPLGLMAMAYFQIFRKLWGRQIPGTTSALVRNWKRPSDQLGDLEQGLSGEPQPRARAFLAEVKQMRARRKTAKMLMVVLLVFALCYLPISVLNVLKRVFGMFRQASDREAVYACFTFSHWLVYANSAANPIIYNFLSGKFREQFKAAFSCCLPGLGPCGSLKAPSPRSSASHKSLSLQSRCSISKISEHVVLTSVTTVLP
The campaign covered roughly 330,000 compounds. About 1,400 (0.42%) were called active.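 How the source made its calls: active means inhibition above its plate's threshold, mean inhibition of all tested compounds on the plate plus 3 SD (cut at about 37% in these data); inactive means the rest.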 The sample holds actives, similar compounds and a random draw of the others, so the mix is not that of the screen.
Labels: active, inactive

molecule	class_label
CCN([C@H](CO)C(C)C)S(=O)(=O)c1ccccc1Br	inactive
CCOC(=O)CC1C(=O)NCCN1c1nc2c(C)cccn2c(=O)c1/C=C1\SC(=S)N(C(C)CC)C1=O (stereo not given)	active
CN(C)C(=O)CCc1ccc2c3c([nH]c2c1)[C@]1(CCc2ccccc2)[C@@H](C(=O)N2CCCCC2)C[C@H](CC(=O)NCCC2=CCCCC2)C(=O)N1CC3	inactive
CC[C@@H](C)[C@@H]1CN([C@@H](C)CN2CCC[C@H]2CN2C(N)=NC[C@H]2C(C)C)C(=N)N1CCc1ccc(Cl)c(Cl)c1	inactive
O=C(Nc1ccc2ccccc2c1)Nc1ccc2snnc2c1	active
O=c1c2ccccc2nc2n1C(CSCc1cccc(C(F)(F)F)c1)CS2 (stereo not given)	active
C[C@]12c3[nH]c4ccc(Cl)cc4c3CCN1C(=O)[C@@H](CC(=O)NCCCn1ccnc1)C[C@@H]2C(=O)N1CCOCC1	inactive
COc1ccc(-c2nc3cc(C)ccn3c2NC2CCCCC2)cc1SC1CCCCC1	inactive
CCOc1ccccc1Nc1ccc2nonc2c1[N+](=O)[O-]	inactive
O=C(COC(=O)c1ccc([N+](=O)[O-])o1)NC12CC3CC(CC(C3)C1)C2	inactive
O=[N+]([O-])c1c(NCCO)cc(Sc2nc3ccccc3s2)c2nonc12	active
C=CCOc1cccc(C2C(C(=O)c3ccc(C)o3)=C(O)C(=O)N2c2nnc(C)s2)c1 (stereo not given)	active
CC1CCCCC1NC(=O)Cn1c(=O)cnc2ccccc21 (stereo not given)	inactive
CCOC(=O)N1CCN(C(=O)CSc2nc(=O)n3cccc(C)c3n2)CC1	inactive
C=CCC1(CC=C)CCCN1C(=O)c1cc(COc2ccc(-n3cncn3)cc2)on1	active
COC(=O)c1cccc(NC(=O)c2cccc(N3C(=O)CCC3=O)c2)c1	inactive
CCc1ccccc1NC(=O)c1ccc2snnc2c1	inactive
COc1ccc2nc3n(c(=O)c2c1)-c1ccc(Cl)cc1C(=O)NC3Cc1ccccc1 (stereo not given)	inactive
CCN(CC)S(=O)(=O)c1ccc(N(C)Cc2ccc(C(F)(F)F)cc2)nc1	inactive
COC(=O)[C@]1(Cc2ccccc2)N[C@H](CN(C)S(=O)(=O)c2ccc(OC(F)(F)F)cc2)[C@@H]2C(=O)N(C)C(=O)[C@@H]21	inactive
Cc1cccc(C(=O)N[C@H](C(=O)NCc2cccs2)C(C)C)c1	inactive
COc1cc(/C=C/C(=O)Nc2ccc(OC)c(S(=O)(=O)N3CCOCC3)c2)ccc1OCC#N	inactive
CCN(CC)S(=O)(=O)c1ccc(N(C)Cc2cccc(OC)c2OC)nc1	active
Cc1ccc(S(=O)(=O)N(C)c2ccc(OCC(=O)OCc3ccc(C#N)cc3)cc2)cc1	inactive
O=C(O)c1ccccc1CSc1nc2ccccc2s1	inactive
Cc1cc(OCCCC(=O)NCCN2C(=O)S/C(=C\c3cccnc3)C2=O)ccc1Cl	active
O=C(NCCN1C(=O)S/C(=C\c2cccnc2)C1=O)c1cccc(OC(F)F)c1	inactive
Cc1ccc(NC(=O)COc2ccc(-n3ccnc3)cc2)cc1Cl	active
CCOc1ccc(N2CC(C(=O)NCCN3C(=O)S/C(=C\c4cccnc4)C3=O)CC2=O)cc1 (stereo not given)	inactive
Fc1ccc2[nH]c3c(N4CCSCC4)ncnc3c2c1	active
CN(CC(=O)Nc1ccc(OC(F)F)cc1)S(=O)(=O)/C=C/c1ccccc1	inactive
O=C(Nc1cccc2cccnc12)c1cccc(N2C(=O)CCC2=O)c1	active
CCCSc1ccc([C@H]2N[C@@](Cc3ccccc3)(C(=O)OC)[C@H]3C(=O)N(C)C(=O)[C@@H]23)cc1	inactive
COc1cccc(OCc2cc(C(=O)N3CCN(C(=O)c4ccco4)CC3)no2)c1	inactive
O=c1c2ccccc2nc2n1C(CSCc1ccccc1)CS2 (stereo not given)	inactive
O=C(CN1C(=O)NC2(CCOc3ccccc32)C1=O)Nc1cccc([N+](=O)[O-])c1 (stereo not given)	inactive
CCC(=O)c1ccc(OCC(=O)Nc2ccc3nc(C)sc3c2)cc1	inactive
Cc1ccc(S(=O)(=O)NC[C@H]2O[C@@H](n3cnc4c(N)ncnc43)[C@H](O)[C@@H]2O)s1	inactive
O=C(Nc1cccc2cccnc12)c1cccc(Cl)c1	inactive
O=C1CCC/C=C/C[C@@H](CC(=O)N(CCO)Cc2ccccc2)C(=O)NC[C@H](c2ccccc2)O1	inactive

====

target: Orexin/Hypocretin receptor type 1 (Homo sapiens); experiment: blockers of orexin-A calcium signaling via HCRTR1 – fluorescence, CHO/OX1R cells, Fluo-8 calcium, primary screen (AID 434989); conditions: Fluo-8 calcium fluorescence, at 5 µM;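 note: 0% = orexin A challenge wells and 100% = SB-334867-A antagonist wells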
Screen size: about 330,000 compounds; about 1,400 (0.42%) were called active.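 The calls were made as follows: active = inhibition above its plate's threshold, mean inhibition of all tested compounds on the plate plus 3 SD (cut at about 37% in these data); inactive = the rest.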 The sample holds actives, similar compounds and a random draw of the others, so the mix is not that of the screen.
Labels: active, inactive

compound	class_label
COc1cccc(/C=N/NC(=O)c2[nH]nc3c2CCc2ccccc2-3)c1O	active
Cn1c(N)c(C(=O)COC(=O)c2cccc(S(=O)(=O)N3CCOCC3)c2)c(=O)n(C)c1=O	inactive
COc1ccccc1NC(=O)CCCc1c[nH]c2ccccc12	inactive
Cc1cc(-c2ccc(C)c(S(=O)(=O)NCCCN(Cc3ccccc3)C(C)C)c2)on1	inactive
OCCN(Cc1ccccc1)Cc1ccc(Cl)cc1	inactive
C[C@H](CO)N1C[C@H](C)[C@@H](CN(C)S(=O)(=O)c2ccc(F)cc2)Oc2c(NC(=O)Nc3ccccc3)cccc2C1=O	inactive
CN(C(=O)CN(CCO)CC(=O)N(C)C(C)(C)Cc1ccccc1)C(C)(C)Cc1ccccc1	active
Cn1c(N)c(C(=O)COC(=O)c2ccc3ccccc3c2)c(=O)n(C)c1=O	active
CCCC(=O)NC(Nc1ccccc1OC)C(Cl)(Cl)Cl (stereo not given)	inactive
CN(c1ccccc1)S(=O)(=O)c1cccc(NC(=O)Cc2c(F)cccc2Cl)c1	inactive
Cc1ccc(C)c(N2CCN(C(=O)CCc3nc(-c4cccc(C(F)(F)F)c4)no3)CC2)c1	inactive
CCOc1ccccc1Nc1nnc(SCC(=O)NCC2CCCO2)s1 (stereo not given)	inactive
O=C(NN=C1CCC(=NNC(=O)c2cccnc2)CC1)c1cccnc1	inactive
COc1ccc(/C=N/NC(=O)c2ccc3c(c2)OCCO3)c(OC)c1	inactive
N#CC(=C1CCCC1)c1nc(-c2ccc(Cl)cc2)cs1	inactive
CC1(C)C=Cc2c(ccc3c2OC[C@@H](c2ccc(O)cc2O)C3)O1	active
Cn1c(/C(C#N)=C2/CCCCCN2)nc2ccccc21	inactive
COc1ccc(CNC(=O)COC(=O)c2sccc2C)cc1OC	inactive
Cc1ccc(S(=O)(=O)N2CCN(c3ncnc4ccccc34)CC2)cc1	inactive
Cn1c(N)c(C(=O)COC(=O)c2cnc(Cl)c(Cl)c2)c(=O)n(C)c1=O	inactive
COc1ccc(CNC(=O)C[C@H]2C[C@H](C(=O)N3CCOCC3)[C@@]3(CCC4CCCC4)c4[nH]c5ccc(Cl)cc5c4CCN3C2=O)cc1OC	inactive
CCNC(=O)CSc1nc(-c2ccccc2)cs1	inactive
O=C(C[C@H]1C[C@H](C(=O)N2CCOCC2)[C@@]2(CCC3CCCC3)c3[nH]c4ccc(Cl)cc4c3CCN2C1=O)NCc1ccco1	inactive
CCCCCCCC(=O)NC(Nc1ccccc1OC)C(Cl)(Cl)Cl (stereo not given)	active
N#C/C(=C1/CCCN1)c1ccccn1	inactive
CN(c1ccccc1)S(=O)(=O)c1cccc(NC(=O)Cc2ccc(Cl)cc2)c1	active
Oc1ccc(N=Nc2nccs2)c(O)c1	inactive
C[C@@H](CN1CCC[C@H]1CN1C(N)=NC[C@@H]1Cc1ccccc1)N1C[C@@H](Cc2ccccc2)N(CCCC2CCCC2)C1=N	inactive
CC(C)COc1ccc(C(=O)NNC(=O)CCC(=O)c2cccs2)cc1	inactive
Cn1nnnc1SCC(=O)Nc1nc2ccccc2s1	inactive
Cc1onc(-c2c(F)cccc2Cl)c1C(=O)OCC(=O)N1C(C)CCCC1C (stereo not given)	inactive
CCOC(=O)C1=C(C)N(C[C@@H]2CC[C@@H](Cc3ccc(-c4ccccc4)cc3)O2)C(=O)NC1c1ccc([N+](=O)[O-])cc1 (stereo not given in full)	inactive
CC[C@]1(C(=O)OC)[C@H]2C(=O)N(Cc3ccccc3)C(=O)[C@H]2[C@H]2CN=C(SCc3ccc(C#N)cc3)N21	inactive
Cc1noc(C)c1NC(=O)Nc1cccc2c1O[C@H](CN(C)S(=O)(=O)c1c(C)noc1C)[C@@H](C)CN([C@H](C)CO)C2=O	inactive
Cc1c(C(=O)Nc2cccc(S(=O)(=O)N3CCOCC3)c2)oc2ccccc12	inactive
O=C(NC(Nc1nc2ccc([N+](=O)[O-])cc2s1)(C(F)(F)F)C(F)(F)F)c1ccccc1	active
CCN(CC)CCCNC(=O)CCc1ccccc1	inactive
CC(=O)c1ccc(NC(=S)NC(=O)CC(C)C)cc1	inactive
COC(=O)c1ccc(C)c(NC(=O)Cn2c(C)csc2=O)c1	inactive
C/C=C/c1ccc(OCC(=O)NNC(=O)CN(C)S(=O)(=O)c2ccc(C)cc2)c(OC)c1	inactive
